# TGI per record follows
Tested on: HCT-116 colon
Assay: NCI tumour cell line growth inhibition, 48 h

Worked set:
C=CCCCCNC(=O)C[C@@H]1C2=C(CC[C@H]1O[Si](C)(C)C(C)(C)C)N1C(=O)CCC/C=C\C1C2 (stereo partly specified) = 26 µM
O=C(NC(=S)Nc1ccc2c(c1)Sc1ccccc1O2)c1ccccc1 = > 100 µM

Task item: TGI lookup needed for CCc1ccc(C(=O)/C=C/C23c4ccccc4C(c4ccccc42)C2C(=O)NC(=O)C23)cc1 (stereo unspecified) , thanks.
Reply: 3.65 µM

Task item: TGI lookup needed for Nc1nc(N)c2ncn(CCCC(c3ccccc3)P(=O)(O)O)c2n1 (stereo unspecified) , thanks.
Reply: > 100 µM

Task item: TGI lookup needed for CCC1=CCN(c2ccc(C)cc2)OC1c1ccc(OC)cc1 (stereo unspecified) , thanks.
Reply: > 100 µM

Task item: TGI lookup needed for `CCCCOC(=O)CC(CC(=O)OCCCC)(OC(C)=O)C(=O)OCCCC` , thanks.
Reply: > 200 µM

Task item: TGI lookup needed for COc1ccc(OC)c(C#N)c1C#N (tested in a mixture with another compound) , thanks.
Reply: > 100 µM
